Recorded values, source paper PMC9490236.

Examples of compounds with documented Papp follow.
Protocol description: in vitro
Test settings: PAMPA, PAMPA_Papp_Avg
Where a SMILES comes first, the peptide text is derived from it. [ ]: non-standard residue; d: D form. NMeI = CC[C@H](C)[C@H](NC)C(=O)O; NMeL = CN[C@@H](CC(C)C)C(=O)O; dNMeL = CN[C@H](CC(C)C)C(=O)O; NMeA = CN[C@@H](C)C(=O)O; dNMeA = CN[C@H](C)C(=O)O

Compound: CC[C@H](C)[C@@H]1NC(=O)[C@@H](C(C)C)NC(=O)[C@@H](CC(C)C)N(C)C(=O)[C@H]2CCCN2C(=O)[C@@H](CC(C)C)NC(=O)[C@@H](CC(C)C)N(C)C(=O)[C@H](CC(C)C)NC(=O)[C@H]2CCCN2C(=O)[C@H](C)N(C)C(=O)[C@H]2CCCN2C1=O [Design D10.41] (cyclo(I[dP][NMeA][dP]L[dNMeL][dL][dP][dNMeL][dV]))
Papp, ×10⁻⁶ cm/s: 5.69
--
Compound: CC[C@H](C)[C@H]1C(=O)N[C@H](C)C(=O)N[C@@H](CC(C)C)C(=O)N[C@@H](C(C)C)C(=O)N2CCC[C@@H]2C(=O)N(C)[C@@H](CC(C)C)C(=O)N[C@@H](C(C)C)C(=O)N2CCC[C@H]2C(=O)N(C)[C@H](CC(C)C)C(=O)N[C@@H](C(C)C)C(=O)N1C [Design D10.19] (cyclo(LV[dP][NMeL]VP[dNMeL]V[NMeI][dA]))
Papp, ×10⁻⁶ cm/s: 6.36
--
Compound: CC[C@H](C)[C@@H]1NC(=O)CNC(=O)[C@@H]2CCCN2C(=O)[C@H]2CCCN2C(=O)[C@H]([C@@H](C)CC)NC(=O)[C@@H](C)N(C)C(=O)[C@@H]2CCCN2C(=O)[C@H](C(C)C)NC(=O)[C@@H](CC(C)C)NC1=O [Design D9.33, DPRO PRO GLY ILE DLEU VAL PRO *DALA ILE] (cyclo(GI[dL]VP[dNMeA]I[dP]P))
Papp, ×10⁻⁶ cm/s: 0.317
